- Test system: SR leukemia
- procedure summary: NCI tumour cell line growth inhibition, 48 h; in the data active = GI50 below about 0.43 µM; inactive = the rest
Outcome codes: Yes = active, No = inactive

>  <line notation>
O=C1CSC(=S)N1Cc1cccnc1

>  <cat>
No

$$$$
>  <line notation>
O=C(N/N=c1/ccoc2cccnc12)N1CCN(c2ncccn2)CC1

>  <cat>
Yes

$$$$
>  <line notation>
CCN(CC)CCCNc1nc2ccccc2c2c(=O)c3cc(Cl)ccc3sc12

>  <cat>
No

$$$$
>  <line notation>
O=c1[nH]ccc2nc(-c3ccc(CN4CCC(c5nc(-c6ccccn6)n[nH]5)CC4)cc3)c(-c3ccccc3)cc12

>  <cat>
No

$$$$
>  <line notation>
C=C(C)[C@@H]1CC[C@]2(C(=O)O)CC[C@]3(C)[C@H](CC[C@@H]4[C@@]5(C)C[C@@H](CC#Cc6ccc(Br)cc6)C(=O)C(C)(C)[C@@H]5CC[C@]43C)[C@@H]12

>  <cat>
No

$$$$
>  <line notation>
COc1cc(/C=C/c2sc3ccccc3[n+]2C)ccc1N(C)C

>  <cat>
No

$$$$
